B1: scFv; the commonest letter at each place (parent)
chain 1: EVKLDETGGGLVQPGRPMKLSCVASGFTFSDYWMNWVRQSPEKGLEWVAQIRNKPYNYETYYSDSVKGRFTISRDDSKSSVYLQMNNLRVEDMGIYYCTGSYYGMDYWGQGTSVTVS
chain 2: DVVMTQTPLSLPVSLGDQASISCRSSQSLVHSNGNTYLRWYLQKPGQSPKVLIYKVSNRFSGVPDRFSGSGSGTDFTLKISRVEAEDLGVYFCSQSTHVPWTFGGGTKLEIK

Variants of: B1
Assay: yeast surface expression (ratio to wild type); higher = more expressed
Conditions: format: scFv 4-4-20, heavy + light
The variants listed here are annotated with their yeast surface expression.

Before answering, review these 3 worked examples.
{"Sequence Variant": "chain 1 G100E W108G G109H", "yeast surface expression": 0.242}
{"Sequence Variant": "chain 1 M105T Y107N", "yeast surface expression": 0.778}
{"Sequence Variant": "chain 1 Y102C D106L", "yeast surface expression": 0.306}

Input chain 1 T28I Y32S . Output yeast surface expression: 0.842

Input chain 1 N35P W36T . Output yeast surface expression: 0.338

Input chain 1 G100I W108K . Output yeast surface expression: 0.698

Input chain 1 M34R V37Q . Output yeast surface expression: 0.276

Input chain 1 M105A G109F . Output yeast surface expression: 0.203

Input chain 1 S101H Y103N . Output yeast surface expression: 0.984

Input chain 1 Y103Q W108A . Output yeast surface expression: 0.644

Input chain 1 Y102M M105T W108T . Output yeast surface expression: 0.539
